EC50 (ng/ml), inhibition of SKBR3 cell proliferation values for the binders below.
molecular target: human ErbB2, full length, on cells (human, UniProt P04626 23-1255); assay: cell-based or functional assay
# output: bare number, implied unit ng/mL

Consider the following illustrative entries.
monoclonal antibody 1.20 (antibody, V domains shown, Fully human IgG (gamma/kappa) from a XenoMouse XM3B-3 hybridoma; constant regions not tied to it; also called 1.20.1; 1.19) VH: EVQLVESGGGLVKPGGSLRLSCAASGFTFSSYTMNWVRQAPGKGLEWVSSISSSSSYIYYADSVKGRFTISRDNAKNSLYLQMNSLSAEDTAVYSCARGGDGYNYYYFDYWGQGTLVTVSS VL: DIVMTQSPGSLVVSLGERATITCKSSQSVFFRSNNKNCLAWYQQRPGQSPNLLIYWASTRESGVPDRFSGSGSGTDFTLTISSLQAEDVAVYYCQQYFGSPFTFGPGTKVDIK :: 25.2
monoclonal antibody 1.96 (antibody, V domains shown, Fully human IgG (gamma/kappa) from a XenoMouse XM3B-3 hybridoma; constant regions not tied to it) VH: EVQLVESGGGLVKPGGSLRLSCAASGFTFSSYSMNWVRQAPGKGLEWVSSISSSSSYIYYADSVKGRFTISRDNAKNSLYLQMNSLRAEDTAVYYCARGGDGYNYYYFDYWGQGTLVTVSS VL: DIVMTQSPDSLAVSLGERATITCKSSQSVFFRSNNKNCLAWYQQRPGQPPNLLFYWASTRESGVPDRFSGSGSGTDFTLTISSLQAEDVAVYYCQQYFGSPFTLGPGTKVDIK :: 41.7

Inquiry: EC50 (ng/ml), inhibition of SKBR3 cell proliferation lookup needed for monoclonal antibody 1.18.1 (antibody, V domains shown, Fully human IgG (gamma/kappa) from a XenoMouse XM3B-3 hybridoma; constant regions not tied to it) VH: EVQLVESGGGLVKPGGSLRLSCAASGFTFSSYSMNWVRQAPGKGLEWVSSISSSSSYIYYADSVKGRFTISRDNAKNSLYLQMNSLSAEDTAVYSCARGGDGYNYYYFDYWGQGTLVTVSS VL: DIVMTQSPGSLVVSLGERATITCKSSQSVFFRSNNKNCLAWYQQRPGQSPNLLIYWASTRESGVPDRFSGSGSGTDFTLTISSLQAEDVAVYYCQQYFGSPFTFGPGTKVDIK , thanks.
Reply text: 26.3
